target: UniProt P29466; test: Caspase-1 enzyme inhibition (Ki); format: biochemical; conditions: substrate Suc-YVAD-pNA 80 μM, 37° C., pH 7.5
Sequence (P29466 120-297 limits assumed): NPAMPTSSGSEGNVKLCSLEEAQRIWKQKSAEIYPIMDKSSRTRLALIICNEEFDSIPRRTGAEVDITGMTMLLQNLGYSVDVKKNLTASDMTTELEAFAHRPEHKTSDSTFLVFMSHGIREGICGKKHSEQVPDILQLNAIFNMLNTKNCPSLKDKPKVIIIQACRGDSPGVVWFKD
Sequence (P29466 317-404 limits assumed): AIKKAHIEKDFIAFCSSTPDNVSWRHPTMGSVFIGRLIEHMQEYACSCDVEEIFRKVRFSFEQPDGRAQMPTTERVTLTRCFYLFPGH
Where a SMILES comes first, the peptide text is derived from it. The star is where a group is joined. Isovaleryl = CC(C)CC(=O)*; 4Abz = Nc1ccc(C(=O)O)cc1
Below is a list of entries, each paired with its recorded Ki value.

INSERT INTO results (molecule, property_measured, assay_value) VALUES
  ('COc1ccc(C(=O)N[C@@H](C)C(=O)N2CCC[C@H]2C(=O)N[C@H](C=O)CC(=O)O)cc1C', 'Ki', '< 0.01 µM'),
  ('CCC(C)[C@H](NC(=O)c1nccc2ccccc12)C(=O)N1CCC[C@H]1C(=O)N[C@H](C=O)CC(=O)O (stereo partly drawn) [Example 20c]', 'Ki', '< 0.01 µM'),
  ('CC(=O)N(C)c1ccc(C(=O)N[C@@H](C)C(=O)N2CCC[C@H]2C(=O)N[C@H](C=O)CC(=O)O)cc1', 'Ki', '> 1 µM');

Enquiry: # input molecule: CC(C)CC(=O)Nc1ccc(C(=O)N[C@@H](C)C(=O)N2CCC[C@H]2C(=O)N[C@H](C=O)CC(=O)O)cc1 [Example 7v] ({Isovaleryl-4Abz}-Ala-Pro-Asp-aldehyde) ; wanted: its Ki
Return: 0.01 to 1 µM

Enquiry: Ki for `COc1cc(C(=O)N[C@@H](C)C(=O)N2CCC[C@H]2C(=O)N[C@H](C=O)CC(=O)O)ccc1N` ?
Return: 0.01 to 1 µM

Enquiry: Field request: Ki | item: CC(C)[C@H](NC(=O)c1ccc(N)c(Cl)c1)C(=O)N1CCNC[C@H]1C(=O)N[C@H](C=O)CC(=O)O [Example 15e]
Return: 0.01 to 1 µM

* * *

pKi: −log10 of the molar value.
UniProt:Q14790: recorded pKi for assorted compounds
Sequence (Q14790 217-374 limits assumed): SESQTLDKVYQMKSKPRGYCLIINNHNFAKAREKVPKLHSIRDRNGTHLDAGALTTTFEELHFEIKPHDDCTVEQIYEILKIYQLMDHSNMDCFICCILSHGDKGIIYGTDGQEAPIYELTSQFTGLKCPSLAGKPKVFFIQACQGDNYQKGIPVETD
Sequence (Q14790 385-479 limits assumed): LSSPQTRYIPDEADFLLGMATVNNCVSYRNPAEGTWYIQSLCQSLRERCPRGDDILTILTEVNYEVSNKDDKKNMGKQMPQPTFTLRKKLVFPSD

INSERT INTO results (compound, target_system, assay_value) VALUES
  ('COc1c(C)cc(C(=O)N[C@@H](C)C(=O)N2CCC[C@H]2C(=O)N[C@H](C=O)CC(=O)O)cc1C [Example 122d]', 'UniProt:Q14790', '< 6.00');

Enquiry: Give UniProt:Q14790 pKi for C[C@H](NC(=O)c1ccc(N)c(Cl)c1)C(=O)N1CCC[C@H]1C(=O)N[C@H](C=O)CC(=O)O [Example 122b]
Return: 6.00 to 8.00

Enquiry: Requested read-out pKi, target or system UniProt:Q14790, entry COc1ccc(C(=O)NC(C(=O)N2CCCC2C(=O)NC(C=O)CC(=O)O)C(C)(C)C)cc1 (stereo not drawn)
Return: 6.00 to 8.00

Enquiry: Field: pKi (UniProt:Q14790). Entry: CC(=O)Nc1ccc(C(=O)N[C@@H](C)C(=O)N2CCC[C@H]2C(=O)N[C@H](C=O)CC(=O)O)cc1Cl [Example 122f]
Return: 6.00 to 8.00

Enquiry: Return pKi measured with UniProt:Q14790 given this compound: `COc1ccc(C(=O)N[C@@H](C)C(=O)N2CCC[C@H]2C(=O)N[C@H](C=O)CC(=O)O)cc1`
Return: < 6.00

Enquiry: Could you share what pKi was measured for C[C@H](NC(=O)c1cc(Cl)c(O)c(Cl)c1)C(=O)N1CCC[C@H]1C(=O)N[C@H](C=O)CC(=O)O [Example 122k] , tested on UniProt:Q14790?
Return: 6.00 to 8.00

meta.source: patent US20030232986A1
